# EXPERIMENTAL SYSTEM: COMT in GpLS9 (Cavia porcellus, UniProt A0A286XRD6)
# Sequence (A0A286XRD6 1-270): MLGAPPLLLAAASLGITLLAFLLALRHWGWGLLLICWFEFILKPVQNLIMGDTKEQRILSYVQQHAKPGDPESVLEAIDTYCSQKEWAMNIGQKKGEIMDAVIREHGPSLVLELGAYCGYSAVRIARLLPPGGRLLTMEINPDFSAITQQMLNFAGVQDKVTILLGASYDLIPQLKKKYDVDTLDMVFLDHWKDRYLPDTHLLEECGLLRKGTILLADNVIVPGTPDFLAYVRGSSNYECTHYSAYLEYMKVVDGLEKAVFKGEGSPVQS
MEASUREMENT KIND: pIC50
The read-out pIC50 is expressed as -log10 of concentration in moles per litre.

Ask | For `Cc1ccc(C(=O)c2cc(O)c(O)c([N+](=O)[O-])c2)cc1` , what is its reported pIC50?
Reply | 6.97

====

# EXPERIMENTAL SYSTEM: COMT in CyLS9 (Macaca fascicularis, UniProt A0A7N9CL08)
# Sequence (A0A7N9CL08 1-274): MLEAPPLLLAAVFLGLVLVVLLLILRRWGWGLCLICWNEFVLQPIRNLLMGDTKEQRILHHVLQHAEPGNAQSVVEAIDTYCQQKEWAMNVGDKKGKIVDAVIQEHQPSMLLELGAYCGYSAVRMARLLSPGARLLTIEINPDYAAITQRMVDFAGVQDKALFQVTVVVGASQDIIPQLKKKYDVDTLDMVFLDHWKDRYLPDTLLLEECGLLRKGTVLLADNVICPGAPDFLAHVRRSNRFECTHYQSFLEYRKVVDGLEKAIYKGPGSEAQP
MEASUREMENT KIND: IC50 (nM)
Please state the figure in nM; there is no need to write the unit.

Ask | Give its IC50 value. Item: `Cc1ccc(C(=O)c2cc(O)c(O)c([N+](=O)[O-])c2)cc1`
Reply | 18.7

====

# EXPERIMENTAL SYSTEM: COMT in DLS9 (Canis lupus familiaris, UniProt Q60F99)
# Sequence (Q60F99 1-221): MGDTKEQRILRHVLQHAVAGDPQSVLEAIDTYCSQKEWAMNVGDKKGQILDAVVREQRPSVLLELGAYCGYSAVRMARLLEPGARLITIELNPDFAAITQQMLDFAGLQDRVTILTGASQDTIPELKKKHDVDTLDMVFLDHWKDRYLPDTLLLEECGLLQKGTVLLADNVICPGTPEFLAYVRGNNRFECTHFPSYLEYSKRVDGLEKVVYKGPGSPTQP
MEASUREMENT KIND: IC50 (nM)
Kindly provide the numeric value in nM only, without the unit symbol.

Ask | Would you kindly share the measured IC50 for `Cc1ccc(C(=O)c2cc(O)c(O)c([N+](=O)[O-])c2)cc1` ?
Reply | 20.8
